- Test: Solubility of Form-II and roxithromycin raw material in three media, HPLC assay
- Format: physicochemical
- Condition description: 37 °C, pH 4.5, aqueous buffer, thermodynamic from solid
Quantity kind: solubility at 24 h (µg/mL)

[[record]]
compound = "CC[C@H]1OC(=O)[C@H](C)[C@@H](O[C@H]2C[C@@](C)(OC)[C@@H](O)[C@H](C)O2)[C@H](C)[C@@H](O[C@@H]2O[C@H](C)C[C@H](N(C)C)[C@H]2O)[C@](C)(O)C[C@@H](C)/C(=N\\OCOCCOC)[C@H](C)[C@@H](O)[C@]1(C)O [roxithromycin raw material, roxithromycin]"
measurement_unit = "µg/mL"
result = 370


---

- Test: Solubility of Form-II and roxithromycin raw material in three media, HPLC assay
- Format: physicochemical
- Condition description: water
Quantity kind: solubility (µg/mL)

[[record]]
smiles_code = "CC[C@H]1OC(=O)[C@H](C)[C@@H](O[C@H]2C[C@@](C)(OC)[C@@H](O)[C@H](C)O2)[C@H](C)[C@@H](O[C@@H]2O[C@H](C)C[C@H](N(C)C)[C@H]2O)[C@](C)(O)C[C@@H](C)/C(=N\\OCOCCOC)[C@H](C)[C@@H](O)[C@]1(C)O"
quantity_kind = "solubility"
measurement_unit = "µg/mL"
result = 1.8


---

- Test: Solubility of Form-II and roxithromycin raw material in three media, HPLC assay
- Type: physicochemical
- Condition description: pH 4.5, aqueous buffer
- Procedure: In further analysis of the novel Form-II, five test tubes with 100 mg of Form-II and 10 ml of one of the following solubility mediums respectively, namely, acetate buffer (pH 4.5), phosphate buffer (pH 6.8) and distilled water were filled. […] The concentrations of the five filtrates of Form-II and roxithromycin raw material respectively are determined by HPLC (high performance liquid chromatography) assay. […]
Quantity kind: solubility (µg/mL)

[[record]]
smiles_code = "CC[C@H]1OC(=O)[C@H](C)[C@@H](O[C@H]2C[C@@](C)(OC)[C@@H](O)[C@H](C)O2)[C@H](C)[C@@H](O[C@@H]2O[C@H](C)C[C@H](N(C)C)[C@H]2O)[C@](C)(O)C[C@@H](C)/C(=N\\OCOCCOC)[C@H](C)[C@@H](O)[C@]1(C)O"
quantity_kind = "solubility"
measurement_unit = "µg/mL"
result = 370


---

- Test: Solubility of Form-II and roxithromycin raw material in three media, HPLC assay
- Format: physicochemical
- Condition description: 37 °C, water, thermodynamic from solid
Quantity kind: solubility at 24 h (µg/mL)

[[record]]
compound = "CC[C@H]1OC(=O)[C@H](C)[C@@H](O[C@H]2C[C@@](C)(OC)[C@@H](O)[C@H](C)O2)[C@H](C)[C@@H](O[C@@H]2O[C@H](C)C[C@H](N(C)C)[C@H]2O)[C@](C)(O)C[C@@H](C)/C(=N\\OCOCCOC)[C@H](C)[C@@H](O)[C@]1(C)O [roxithromycin raw material, roxithromycin]"
result = 1.7


These entries and their values trace back to patent US8901089B2.
